Cited source: the supplement of paper PMC9112550

System: Escherichia coli TOP10;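 further: peptides expressed intracellularly from a pBAD plasmid library in pooled LB shake-flask culture, induced with 0.3% L-arabinose, DNA abundance read by NGS, three biological replicates, DESeq2 with apeglm shrinkage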
experimentalProtocol: shrunken log2 fold change of peptide-encoding DNA abundance (4.5 h post-induction vs induction); higher = less antimicrobial activity (less host growth inhibition)
conditionInfo: time post-induction: 4.5 h; library: site-saturation at positions 5, 18, 19, 20
Parameter threshold = 0.06. Response is class 1 when shrunken log2 fold change meets or exceeds it, else class 0.

[[record]]
sequencecontent = "RRIRDRPPRLPRPRPRPGWGPRP"
systemtested = "Escherichia coli TOP10"
labelclass = "class 1"


## Task Could you verify whether the entry `RRIRFRPPRLPRPRPRPNYTPRP` shows shrunken log2 fold change of no less than 0.06?
## Result class 0

## Task Could you verify whether the entry `RRIRTRPPRLPRPRPRPCNSPRP` shows shrunken log2 fold change of no less than 0.06?
## Result class 0

## Task Could you verify whether the entry `RRIRVRPPRLPRPRPRPYCYPRP` shows shrunken log2 fold change of no less than 0.06?
## Result class 0

## Task Could you verify whether the entry `RRIRCRPPRLPRPRPRPNRAPRP` shows shrunken log2 fold change of no less than 0.06?
## Result class 0

## Task Could you verify whether the entry `RRIRQRPPRLPRPRPRPEPHPRP` shows shrunken log2 fold change of no less than 0.06?
## Result class 1

## Task Could you verify whether the entry `RRIRFRPPRLPRPRPRPCRGPRP` shows shrunken log2 fold change of no less than 0.06?
## Result class 0

## Task Could you verify whether the entry `RRIRARPPRLPRPRPRPQLVPRP` shows shrunken log2 fold change of no less than 0.06?
## Result class 1

## Task Could you verify whether the entry `RRIRNRPPRLPRPRPRPRYWPRP` shows shrunken log2 fold change of no less than 0.06?
## Result class 1

## Task Could you verify whether the entry `RRIRTRPPRLPRPRPRPCVIPRP` shows shrunken log2 fold change of no less than 0.06?
## Result class 0

## Task Could you verify whether the entry `RRIRARPPRLPRPRPRPPIAPRP` shows shrunken log2 fold change of no less than 0.06?
## Result class 1

## Task Could you verify whether the entry `RRIRIRPPRLPRPRPRPVHWPRP` shows shrunken log2 fold change of no less than 0.06?
## Result class 0

## Task Could you verify whether the entry `RRIRMRPPRLPRPRPRPEHVPRP` shows shrunken log2 fold change of no less than 0.06?
## Result class 0

## Task Could you verify whether the entry `RRIRCRPPRLPRPRPRPRHFPRP` shows shrunken log2 fold change of no less than 0.06?
## Result class 0
